Assay: Metabolic stability in swine brain homogenate
Assay type: in vitro ADME
Conditions: 10 μM, 0-60 min
Metric name: Metabolic lability in swine brain homogenate (in words)

{"Compound": "CC(C)OC(=O)[C@H](CCC(=O)C=[N+]=[N-])NC(=O)OC(OC(=O)C(C)(C)C)C(C)C (mixture of isomers) [Compound 13c]", "Recorded result": "readily biotransformed"}
{"Compound": "CC(C)OC(=O)[C@H](CCC(=O)C=[N+]=[N-])NC(=O)OC(OC(=O)C(C)(C)C)c1ccccc1 (stereo partly shown) [Compound 13d]", "Recorded result": "readily biotransformed"}
